test: Tmax in C57BL/6 mouse at 10 mg/kg, ip; type: ADME, organism-based; settings: in vivo

test-smiles	Tmax [h]
CC[C@@H]1NC(=O)[C@H]([C@@H]2O[C@@H](Sc3cccc(OCc4ccccc4)c3)C[C@H]2C)N(C)C(=O)[C@H](C(C)C)N(C)C(=O)[C@H](CC(C)C)N(C)C(=O)[C@H](CC(C)C)N(C)C(=O)[C@@H](C)NC(=O)[C@H](C)NC(=O)[C@H](CC(C)C)N(C)C(=O)[C@H](C(C)C)NC(=O)[C@H](CC(C)C)N(C)C(=O)CN(C)C1=O	2

---

test: Intrinsic clearance in rat liver microsomes at 1 uM preincubated for 5 mins followed by NADPH addition and measured upto 60 mins by LC-MS analysis; format: ADME, Microsome; settings: time 65 min, read-out: CLH

test-smiles	microsomal CLint at 1 µM / µL/min/mg
CCCCc1ccc(S[C@H]2C[C@@H](C)[C@H]([C@H]3C(=O)N[C@@H](CC)C(=O)N(C)CC(=O)N(C)[C@@H](CC(C)C)C(=O)N[C@@H](C(C)C)C(=O)N(C)[C@@H](CC(C)C)C(=O)N[C@@H](C)C(=O)N[C@H](C)C(=O)N(C)[C@@H](CC(C)C)C(=O)N(C)[C@@H](CC(C)C)C(=O)N(C)[C@@H](C(C)C)C(=O)N3C)O2)cc1	4
CC[C@@H]1NC(=O)[C@H]([C@@H]2O[C@@H](Sc3cc(OC)cc(OC)c3)C[C@H]2C)N(C)C(=O)[C@H](C(C)C)N(C)C(=O)[C@H](CC(C)C)N(C)C(=O)[C@H](CC(C)C)N(C)C(=O)[C@@H](C)NC(=O)[C@H](C)NC(=O)[C@H](CC(C)C)N(C)C(=O)[C@H](C(C)C)NC(=O)[C@H](CC(C)C)N(C)C(=O)CN(C)C1=O	0.7
CCOc1cccc(S[C@H]2C[C@@H](C)[C@H]([C@H]3C(=O)N[C@@H](CC)C(=O)N(C)CC(=O)N(C)[C@@H](CC(C)C)C(=O)N[C@@H](C(C)C)C(=O)N(C)[C@@H](CC(C)C)C(=O)N[C@@H](C)C(=O)N[C@H](C)C(=O)N(C)[C@@H](CC(C)C)C(=O)N(C)[C@@H](CC(C)C)C(=O)N(C)[C@@H](C(C)C)C(=O)N3C)O2)c1	2.3
